Origin of the recorded values: PubChem BioAssay AID463107

Target: Sphingosine 1-phosphate receptor 4 (Homo sapiens) (UniProt O95977)
Sequence (O95977 whole entry, looked up): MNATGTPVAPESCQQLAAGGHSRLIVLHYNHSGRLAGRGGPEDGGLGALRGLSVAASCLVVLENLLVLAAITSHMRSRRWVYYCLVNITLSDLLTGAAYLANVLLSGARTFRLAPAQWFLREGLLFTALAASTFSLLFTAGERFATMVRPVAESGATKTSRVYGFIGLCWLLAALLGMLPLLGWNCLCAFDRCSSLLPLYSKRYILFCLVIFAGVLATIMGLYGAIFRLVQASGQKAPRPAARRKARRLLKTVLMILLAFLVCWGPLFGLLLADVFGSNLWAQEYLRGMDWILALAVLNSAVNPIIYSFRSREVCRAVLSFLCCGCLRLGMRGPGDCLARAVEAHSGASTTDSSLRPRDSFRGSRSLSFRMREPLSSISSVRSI
Experiment: potency of S1P4 activators – cell-based, fluorescence, synthesized compounds, late-stage follow-up (AID 463107)
Conditions: S1P4 cell-based agonist assay
Assign pEC50 to each entry below.
Lab note: report pEC50 as minus log10 of the concentration in molar units, number only.

Check the records and state pEC50 for `Cc1ccc(OCCOc2ccc(C)nc2[N+](=O)[O-])c(C)c1`
5.14

Give the measured pEC50 for `Cc1ccc(OCCOc2ccc(Cl)cc2Cl)c(Br)n1`
7.28

// Input: `Clc1ccc(OCCOc2ccc(Br)nc2Br)c(Cl)c1` . Output its pEC50 only.
7.33

Give pEC50 for `Cc1ccc(OCCOc2ccc(Cl)cc2Cl)c([N+](=O)[O-])n1`
6.79

For the molecule `COc1ccc(OCCOc2ccc(C)nc2[N+](=O)[O-])c(Cl)c1` , give its reported pEC50.
5.41

Indicate its recorded pEC50; the molecule in question is `Cc1ccc(OCCOc2c(Cl)cc(Cl)cc2Cl)c([N+](=O)[O-])n1`
6.24

# return recorded pEC50 for entry `FCc1ccc(OCCOc2ccc(Cl)cc2Cl)c(Cl)n1`
7.34
